All figures here come from patent US9845321B2.

EXPERIMENT: in vitro
Assay type: cell-based
CONDITION DETAILS: human
READOUT NAME: CC50 at 3 days

Previously resolved entries follow.
CC1(n2c(=O)n(Cc3nc4nc(Cl)ccc4n3CCCC(F)(F)F)c3cnccc32)CC1 [Compound P9] ... > 100 µM
COC(=O)c1ccc(-n2c(=O)n(Cc3cc4cc(Cl)ccc4n3CCCC#N)c3cnccc32)cc1 [Compound P51] ... 39.8 µM

Provide the reported CC50 at 3 days of each entry below, same order.
1. O=c1n(Cc2cc3cc(Cl)ccc3n2CCCCF)c2cnccc2n1-c1ccncc1 [Compound P44]
2. COc1ccc(-n2c(=O)n(Cc3cc4cc(Cl)ccc4n3CCCC#N)c3cnccc32)cc1 [Compound P14]
3. N#CCCCn1c(Cn2c(=O)n(-c3nccs3)c3ccc(F)cc32)cc2cc(Cl)ccc21 [Compound P27]
4. N#CCCCn1c(Cn2c(=O)n(-c3ccncc3)c3ccc(F)cc32)cc2cc(Cl)ccc21 [Compound P40]
5. O=c1n(Cc2cc3cc(Cl)ccc3n2CCCCF)c2cnccc2n1-c1ccc2ncccc2c1 [Compound P31]

Ans.
1. > 100 µM
2. 12.6 µM
3. > 100 µM
4. > 100 µM
5. > 100 µM

Qu. Reported CC50 at 3 days, compound N#CCCCn1c(Cn2c(=O)n(-c3ccncc3F)c3ccncc32)cc2cc(Cl)ccc21 [Compound P42] : ____
Ans. > 100 µM
